- Target System: T1, biotinylated CD32bECDHis (human, UniProt P31994 43-223, limits assumed, biotinylated (sites not given))
- T1 sequence (looked up): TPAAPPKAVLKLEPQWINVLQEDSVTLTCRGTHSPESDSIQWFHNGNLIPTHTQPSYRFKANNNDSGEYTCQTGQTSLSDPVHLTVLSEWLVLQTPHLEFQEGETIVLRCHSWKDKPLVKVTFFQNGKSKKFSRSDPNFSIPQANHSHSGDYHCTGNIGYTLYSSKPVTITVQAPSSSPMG
- Test Description: competition ELISA, competitor 053
Property Label: % residual binding (%)

Binder | Result Unit | Reported Value
Antibody 063 (antibody, human IgG1, V domains shown, Human antibody; also called HuMab 063) VH: EVQLLESGGGLVQPGGSLRLSCAASGFTFSSYAMSWVRQAPGKGLEWVSAISDSGGSTYYADSVKGRFTISRDNSKNTLYLQMNSLRAEDTAAYYCAKEIAVALFDYWGQGTLVTVSS VL: EIVLTQSPATLSLSPGERATLSCRASQSVSSYLAWYQQKPGQAPRLLIYDASNRATGIPARFSGSGSGTDFTLTISSLEPEDFAVYYCQQRSSWPPYTFGQGTKLEIKR | % | 79
Antibody 020 (antibody, V domains shown, also called HuMab 020) VH: QVQLVQSGGEVKKPGASVKVSCKTSGYTFTSYGISWVRQAPGQGLEWMGWISAYNGNTKYAQKLQGRLTMTTDTSTTTAYMELRSLRSDDTAVYYCARDSAAHGMDVWGQGTTVTVSS VL: DIQMTQSPSSLSASVGDRVTITCRASQGISSWLAWYQQKPEKAPKSLIYAASSLQSGVPSRFRGSGSGTDFTLTISSLQPEDFATYYCQQYNSYPYTFGQGTKLEIKR | % | 42
Antibody 038 (antibody, human IgG1, V domains shown, Human antibody; also called HuMab 038) VH: QVQLVESGGGVVQPGRSLRLSCAASGFTFSTYGMHWVRQAPGKGLEWVAVISHDGSDKYYADSVKGRFTISRDNSKNTLYLQMNSLRAEDTAVYYCARDQSIIETFDYWGQGTLVTVSS VL: EIVLTQSPATLSLSPGERATLSCRASQSVSSYLAWYQQKPGQAPRLLIYDASNRATGIPARFSGSGSGTDFTLTISSLEPEDFAVYYCQQRSNWGFTFGPGTKVDIKR | % | 333
